Source: patent US20090098124A1

Consider the following binders; for each one, report its Binding to FcγRIIIA (ELISA).
TARGET_SYSTEM: T1, soluble monomeric FcγRIIIA (extracellular region joined to linker-AVITAG), allele not stated (human, UniProt P08637 17-208)
T1 construct: extracellular domain; also called FcRIIIA; CD16A; not shown: linker-AVITAG
T1 sequence (P08637 17-208): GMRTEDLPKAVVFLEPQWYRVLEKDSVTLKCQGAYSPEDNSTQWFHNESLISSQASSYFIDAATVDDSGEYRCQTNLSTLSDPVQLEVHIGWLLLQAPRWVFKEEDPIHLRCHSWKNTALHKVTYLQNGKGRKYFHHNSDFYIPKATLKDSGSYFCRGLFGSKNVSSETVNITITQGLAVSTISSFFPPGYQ
EXPERIMENT_NOTES: ELISA
Numbers only, in fold increase.

- BINDER: "IgG1 Fc mutant T256S, V305I, K334E, N390S (antibody) heavy: ASTKGPSVFPLAPSSKSTSGGTAALGCLVKDYFPEPVTVSWNSGALTSGVHTFPAVLQSSGLYSLSSVVTVPSSSLGTQTYICNVNHKPSNTKVDKKVEPKSCDKTHTCPPCPAPELLGGPSVFLFPPKPKDTLMISRSPEVTCVVVDVSHEDPEVKFNWYVDGVEVHNAKTKPREEQYNSTYRVVSILTVLHQDWLNGKEYKCKVSNKALPAPIEETISKAKGQPREPQVYTLPPSRDELTKNQVSLTCLVKGFYPSDIAVEWESNGQPENSYKTTPPVLDSDGSFFLYSKLTVDKSRWQQGNVFSCSVMHEALHNHYTQKSLSLSPGK"
  Binding to FcγRIIIA (ELISA) (fold increase): 1.5
- BINDER: "IgG1 Fc mutant T335N, K370E, A378V, T394M, S424L (antibody) heavy: ASTKGPSVFPLAPSSKSTSGGTAALGCLVKDYFPEPVTVSWNSGALTSGVHTFPAVLQSSGLYSLSSVVTVPSSSLGTQTYICNVNHKPSNTKVDKKVEPKSCDKTHTCPPCPAPELLGGPSVFLFPPKPKDTLMISRTPEVTCVVVDVSHEDPEVKFNWYVDGVEVHNAKTKPREEQYNSTYRVVSVLTVLHQDWLNGKEYKCKVSNKALPAPIEKNISKAKGQPREPQVYTLPPSRDELTKNQVSLTCLVEGFYPSDIVVEWESNGQPENNYKTMPPVLDSDGSFFLYSKLTVDKSRWQQGNVFLCSVMHEALHNHYTQKSLSLSPGK"
  Binding to FcγRIIIA (ELISA) (fold increase): 0.5
- BINDER: "IgG1 Fc mutant F243L, R255L, E318K (antibody) heavy: ASTKGPSVFPLAPSSKSTSGGTAALGCLVKDYFPEPVTVSWNSGALTSGVHTFPAVLQSSGLYSLSSVVTVPSSSLGTQTYICNVNHKPSNTKVDKKVEPKSCDKTHTCPPCPAPELLGGPSVFLLPPKPKDTLMISLTPEVTCVVVDVSHEDPEVKFNWYVDGVEVHNAKTKPREEQYNSTYRVVSVLTVLHQDWLNGKKYKCKVSNKALPAPIEKTISKAKGQPREPQVYTLPPSRDELTKNQVSLTCLVKGFYPSDIAVEWESNGQPENNYKTTPPVLDSDGSFFLYSKLTVDKSRWQQGNVFSCSVMHEALHNHYTQKSLSLSPGK"
  Binding to FcγRIIIA (ELISA) (fold increase): 1

Exam item: Which Binding to FcγRIIIA (ELISA) is reported for this binder? IgG1 Fc mutant F243L, V305I, A378D, F404S, P396L (antibody) heavy: ASTKGPSVFPLAPSSKSTSGGTAALGCLVKDYFPEPVTVSWNSGALTSGVHTFPAVLQSSGLYSLSSVVTVPSSSLGTQTYICNVNHKPSNTKVDKKVEPKSCDKTHTCPPCPAPELLGGPSVFLLPPKPKDTLMISRTPEVTCVVVDVSHEDPEVKFNWYVDGVEVHNAKTKPREEQYNSTYRVVSILTVLHQDWLNGKEYKCKVSNKALPAPIEKTISKAKGQPREPQVYTLPPSRDELTKNQVSLTCLVKGFYPSDIDVEWESNGQPENNYKTTPLVLDSDGSSFLYSKLTVDKSRWQQGNVFSCSVMHEALHNHYTQKSLSLSPGK
Marked response: 1.6
